The measurements presented in this section are drawn from paper PMC6523162.

# Tested on: IL-6 release from LPS-stimulated BV-2 murine microglia
# assay.comment: IL-6 ELISA in LPS-stimulated BV-2 media
# Assay type: cell-based
# run.parameters: 10 μM, LPS 1 μg/mL
# reduction of IL-6 production compared to LPS listing for each entry below
observation.type: reduction of IL-6 production compared to LPS (%)

input.smiles: O=c1c(-c2ccc(O)cc2)coc2cc(O)cc(O)c12
endpoint.value: 34.0
//
input.smiles: COc1cc(C[C@@H](CO)[C@H](CO)Cc2ccc(O)c(OC)c2)ccc1O
endpoint.value: 1.05

====

# System: TNF-α release from LPS-stimulated BV-2 murine microglia
# assay.comment: TNF-α ELISA in LPS-stimulated BV-2 media
# Type: cell-based
# run.parameters: 10 μM; Tukey's multiple comparisons test
Returns True if the recorded Mean Diff., LPS (1 μg/mL) vs. compound, TNF-α is greater than or equal to 60, and False otherwise.

compound: O=c1c(-c2ccc(O)cc2)coc2cc(O)ccc12 [DAI, daidzein]
class: False
//
compound: OC[C@H](Cc1cccc(O)c1)[C@H](CO)Cc1cccc(O)c1 [ED, enterodiol]
class: False
//
compound: COc1cc(C[C@@H](CO)[C@H](CO)Cc2ccc(O)c(OC)c2)ccc1O [SECO, secoisolariciresinol]
class: False
//
compound: O=C1OC[C@H](Cc2cccc(O)c2)[C@H]1Cc1cccc(O)c1 [EL, enterolactone]
class: True
//
compound: Oc1ccc([C@H]2COc3cc(O)ccc3C2)cc1 [EQ, equol]
class: False
//
compound: O=c1c(-c2ccc(O)cc2)coc2cc(O)cc(O)c12 [GEN, genistein]
class: True
